System: Wistar rats
protocolText: Diuresis investigations in conscious rats kept in metabolism cages
Assay type: in vivo
testParameters: rat, 3.0 mg/kg p.o.
Urinary volume [% vs. control = 100%] reference
Note: unit % vs. control = 100% is implicit; provide only the numeric part.

Example entries begin here.
>>> print(df.to_string())
                                   compound  reportedresult
0  CC(=O)c1nc(Cn2nc(-c3ccc(Cl)cc3)n(C[C@H](O)C(F)(F)F)c2=O)nn1-c1cccc(Cl)c1 [Example 1]             554
1  COC(=O)Cn1nc(-c2ccccc2Cl)nc1Cn1nc(-c2ccc(Cl)cc2)n(C[C@H](O)C(F)(F)F)c1=O [Example No. WO 2011/104322 56]              85

Turning to the following compound.
The recorded Urinary volume [% vs. control = 100%] for O=c1n(Cc2nnc(-c3ccccc3Cl)[nH]2)nc(-c2ccc(Cl)cc2)n1C[C@H](O)C(F)(F)F [Example No. WO 2011/104322 54] is 188
